Please provide measured inhibition for the entries that follow.
measured_on: MAP kinase-activated protein kinase 2 (Homo sapiens) (UniProt P49137)
Sequence (P49137 whole entry, looked up): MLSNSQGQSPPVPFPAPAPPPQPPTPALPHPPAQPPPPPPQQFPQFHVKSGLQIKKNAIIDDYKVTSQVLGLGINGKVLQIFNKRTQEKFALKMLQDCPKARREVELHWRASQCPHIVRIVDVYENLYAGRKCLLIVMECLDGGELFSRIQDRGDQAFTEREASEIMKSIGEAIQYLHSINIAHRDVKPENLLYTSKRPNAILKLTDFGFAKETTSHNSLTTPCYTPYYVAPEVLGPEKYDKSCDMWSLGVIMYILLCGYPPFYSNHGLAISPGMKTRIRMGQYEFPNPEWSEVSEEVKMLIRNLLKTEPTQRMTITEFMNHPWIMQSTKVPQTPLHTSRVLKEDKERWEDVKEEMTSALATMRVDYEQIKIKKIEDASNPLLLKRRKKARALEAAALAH
assay_conditions: at 0.1 µM;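 also: figures are mean inhibition values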
Give just the numeric value; % need not be written.

State measured inhibition of the molecule O=C(Nc1ccc(Oc2ccc3[nH]c(NC(=O)c4ccco4)nc3c2)cc1)Nc1cc(C(F)(F)F)ccc1F with MAP kinase-activated protein kinase 2 (Homo sapiens) (UniProt P49137). -0.82

Identify measured inhibition obtained with MAP kinase-activated protein kinase 2 (Homo sapiens) (UniProt P49137) for COc1cccc(-n2ncc3c(N/N=C/c4ccc(S(C)(=O)=O)cc4)ncnc32)c1 . -0.57

Report value: inhibition, system: MAP kinase-activated protein kinase 2 (Homo sapiens) (UniProt P49137), molecule: COc1cc2ncnc(Nc3ccc4c(cnn4Cc4ccccc4)c3)c2cc1OC 2.78

Look up and report measured inhibition (MAP kinase-activated protein kinase 2 (Homo sapiens) (UniProt P49137)) for the following molecule: NS(=O)(=O)c1cccc(Nc2cc(-c3ccc(F)cc3)n[nH]2)c1 4.39

Write down the reported inhibition (system: MAP kinase-activated protein kinase 2 (Homo sapiens) (UniProt P49137)) of COc1ccc2ncnc(Nc3ccc(OCc4ccccc4)cc3)c2c1 1.42
